Data credit: patent US20250382344A1

target_desc: T1, human GIP receptor (human, UniProt P48546 22-466)
T1 sequence (looked up): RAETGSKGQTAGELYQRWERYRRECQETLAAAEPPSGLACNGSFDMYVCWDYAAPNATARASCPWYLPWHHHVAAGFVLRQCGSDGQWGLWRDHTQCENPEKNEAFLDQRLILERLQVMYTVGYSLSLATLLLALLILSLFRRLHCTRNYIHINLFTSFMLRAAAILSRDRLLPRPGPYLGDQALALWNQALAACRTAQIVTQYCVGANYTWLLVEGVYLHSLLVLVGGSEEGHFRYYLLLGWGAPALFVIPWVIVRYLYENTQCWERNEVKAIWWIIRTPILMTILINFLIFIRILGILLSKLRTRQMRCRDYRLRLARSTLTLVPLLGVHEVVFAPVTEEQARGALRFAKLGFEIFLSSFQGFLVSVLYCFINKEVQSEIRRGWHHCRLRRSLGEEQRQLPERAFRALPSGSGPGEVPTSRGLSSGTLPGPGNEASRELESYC
protocol: cell-based or functional assay
*1 amine or outer side, *2 acyl side, *3 side chain or, on linkers, in order; H or OH if unused. Where no end group is shown, it is not given here. Side-chain parts run from the residue outwards. [ ]: non-standard residue; d: D form. The star is where a group is joined. C20 diacid = O=C(O)CCCCCCCCCCCCCCCCCCC(=O)*; C18 diacid = O=C(O)CCCCCCCCCCCCCCCCC(=O)*; γGlu = O=C(O)[C@H](CCC(=O)[*:2])N[*:1]; εLys = N[C@@H](CCCCN[*:1])C(=O)[*:2]; dtOrn = not defined here; AEEA = NCCOCCOCC(=O)O; Aib = CC(C)(N)C(=O)O
property_label: EC50, CreLuc reporter, 100% hP (nM)

binder: Y[Aib]EGTFTSDYSI[Aib]LEKQAQ[Aib]AFVRHLINK([AEEA-γGlu-γGlu-γGlu-γGlu-γGlu-γGlu-C20 diacid])[Aib]TRQRY-NH2 [Compound 99]
recorded_measurement: 9
//
binder: YXEGTFTSDYSIXLEKQAQYAFVRHLINKXTRQRY (Aib at 2, 13, 30; Lys29 epsilon-amino: C18DA-gGlu-gGlu-gGlu-gGlu-gGlu-gGlu-eLys; C-terminal amide) [Compound 151]
recorded_measurement: 5.6
//
binder: YXEGTFTSDYAIXLEKQAQXAFVRHLINKXTRQRY (Aib at 2, 13, 20, 30; Lys29 epsilon-amino: C18DA-gGlu-gGlu-gGlu-gGlu-gGlu-gGlu-eLys; C-terminal amide) [Compound 142]
recorded_measurement: 3.4
//
binder: YXEGTFTSDYSIXLEKQAQXAFVRHLINKXTRQRX (Aib at 2, 13, 20, 30; Phe4F at 35; Lys29 epsilon-amino: C18DA-gGlu-gGlu-gGlu-gGlu-gGlu-gGlu-eLys; C-terminal amide) [Compound 86]
recorded_measurement: 5.9
//
binder: YXEGTFTSDYSEXLEKQAQXAFVRHLINKXTRQRY (Aib at 2, 13, 20, 30; Lys29 epsilon-amino: C18DA-gGlu-gGlu-gGlu-gGlu-gGlu-gGlu-eLys; C-terminal amide) [Compound 112]
recorded_measurement: 10.3
//
binder: YXEGTFTSDYSIXLEKQAQXAFIRHLINKXTRQRY (Aib at 2, 13, 20, 30; Lys29 epsilon-amino: C18DA-gGlu-gGlu-gGlu-gGlu-gGlu-gGlu-eLys; C-terminal amide) [Compound 88]
recorded_measurement: 1.7
//
binder: YXEGTFTSDYSIXLEKQAQXSFVRHLINKXTRQRY (Aib at 2, 13, 20, 30; Lys29 epsilon-amino: C18DA-gGlu-gGlu-gGlu-gGlu-gGlu-gGlu-eLys; C-terminal amide) [Compound 144]
recorded_measurement: 4.8
//
binder: Y[Aib]EGTFTSDYSI[Aib]LEKQAQ[Aib]EFVRHLINK([εLys-γGlu-γGlu-γGlu-γGlu-C18 diacid])[Aib]TRQRY-NH2 [Compound 163]
recorded_measurement: 5.9
//
binder: Y[Aib]EGTFTSDYSI[Aib]LEKQAQ[Aib]AFVRHLINK([γGlu-γGlu-AEEA-γGlu-γGlu-γGlu-γGlu-C20 diacid])[Aib]TRQRY-NH2 [Compound 136]
recorded_measurement: 9.1
//
binder: Y[Aib]EGTFTSDYSI[Aib]LEKQAQ[Aib]AFVRHLINK([dtOrn-γGlu-γGlu-γGlu-γGlu-γGlu-γGlu-C20 diacid])[Aib]TRQRY-NH2 (reading uncertain) [Compound 97]
recorded_measurement: 12.7
//
binder: YXEGTFTSDYSIXLDKQAQXAFIRHLINKXTRQRY (Aib at 2, 13, 20, 30; Lys29 epsilon-amino: C18DA-gGlu-gGlu-gGlu-gGlu-gGlu-gGlu-eLys; C-terminal amide) [Compound 102]
recorded_measurement: 2.8
//
binder: YXEGTFTSDYSIXLEKQAQXAFVRHAINKXTRQRY (Aib at 2, 13, 20, 30; Lys29 epsilon-amino: C18DA-gGlu-gGlu-gGlu-gGlu-gGlu-gGlu-eLys; C-terminal amide) [Compound 139]
recorded_measurement: 22.3
//
binder: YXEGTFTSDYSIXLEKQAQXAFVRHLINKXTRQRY (Aib at 2, 20, 30; aMeL at 13; Lys29 epsilon-amino: C20DA-gGlu-gGlu-gGlu-gGlu-gGlu-gGlu-eLys; C-terminal amide) [Compound 150]
recorded_measurement: 2.8
//
binder: Y[Aib]EGTFTSDYSI[Aib]LDEQAQ[Aib]AFVRHLINK([εLys-εLys-γGlu-γGlu-γGlu-γGlu-γGlu-C20 diacid])[Aib]TRQRY-NH2 [Compound 155]
recorded_measurement: 6.1
//
binder: YXEGTFTSDYSILLEKQAQXAFVRHLINKXTRQRY (Aib at 2, 20, 30; Lys29 epsilon-amino: C18DA-gGlu-gGlu-gGlu-gGlu-gGlu; C-terminal amide) [Compound 122]
recorded_measurement: 4.5
//
binder: Y[Aib]EGTFTSDYSI[Aib]LDEQAQ[Aib]AFVRHLINK([εLys-γGlu-γGlu-γGlu-γGlu-γGlu-C20 diacid])[Aib]TRQRY-NH2 [Compound 138]
recorded_measurement: 11.5
//
binder: YXEGTFTSDYSIXLEKQAQXAFVRHLINKXTRQXY (Aib at 2, 13, 20, 30; dOR at 34; Lys29 epsilon-amino: C18DA-gGlu-gGlu-gGlu-gGlu-gGlu; C-terminal amide) [Compound 96]
recorded_measurement: 1.7
//
binder: YXEGTFTSDYSIXLEKQRQXAFVRHLINKXTRQRY (Aib at 2, 13, 20, 30; Lys29 epsilon-amino: C18DA-gGlu-gGlu-gGlu-gGlu-gGlu-gGlu-eLys; C-terminal amide) [Compound 91]
recorded_measurement: 14.4
//
binder: YXEGTFTSDYSAXLEKQAQXAFVRHLINKXTRQRY (Aib at 2, 13, 20, 30; Lys29 epsilon-amino: C18DA-gGlu-gGlu-gGlu-gGlu-gGlu-gGlu-eLys; C-terminal amide) [Compound 156]
recorded_measurement: 14.8
//
binder: Y[Aib]EGTFTSDYSI[Aib]LDKQAQ[Aib]EFVRHLINK([εLys-γGlu-γGlu-γGlu-γGlu-γGlu-C18 diacid])[Aib]TRQRY-NH2 [Compound 113]
recorded_measurement: 5.5
//
binder: YXEGTFTSDYSIXLEKQAQXAFVRHLINKLTRQRY (Aib at 2, 13, 20; Lys29 epsilon-amino: C18DA-gGlu-gGlu-gGlu-gGlu-gGlu-gGlu-eLys; C-terminal amide) [Compound 127]
recorded_measurement: 16.7
